assay: qHTS Assay for Inhibitors of Hepatitis C Virus (HCV); conditions: Huh7.5.1 HCVcc-Cre infection, luciferase reporter, 44 h; series mostly up to 41.8 µM
The campaign covered roughly 340,000 compounds. About 12,000 (3.5%) were called active. Inconclusive results (about 18%) are left out. The call rests on the fitted dose curve; in most records, active means well fitted inhibition curve with a large enough effect; inconclusive means small, poorly fitted or top-dose-only effect, or another doubt; inactive means no such curve, though single readings can be large or run the other way. The full list was thinned out, with actives kept by preference.
In this exercise, the only acceptable responses are label 1 (active), label 0 (inactive)

Consider the following illustrative entries.
| molecule | labelValue |
| --- | --- |
| CCN(CC(=O)Nc1ccccc1C(F)(F)F)C(=O)C1CCN(C(=O)Nc2ccccc2)CC1 | label 0 |
| CN(C)C(=O)COC(=O)c1cccc(S(=O)(=O)N2CC3(C)CC2CC(C)(C)C3)c1 (stereo not given) | label 0 |
| COc1cccc(COC(=O)C2CCN(S(=O)(=O)c3cccs3)CC2)c1OC | label 0 |
| CCOC(=O)CC1(NC(=O)c2cc(COc3cncc(Cl)c3)on2)CCCCC1 | label 1 |

Tell me the assay call for `COC(=O)C1=C(C)N(Cc2ccccc2)C(=NCCCOC(C)C)N[C@H]1c1ccccc1` please.
label 0

Tell me the assay call for CCN(CC)CCCNC(=O)c1c(O)c2cc(F)cc3c2n(c1=O)C(C)CC3 (stereo not given) please.
label 1

Tell me the assay call for `COc1ccc(-n2nc3c(N4CCC(C(=O)NCc5ccccc5)CC4)nnc(C)c3c2C)cc1` please.
label 0

Tell me the assay call for `CCN(CC)CCCNC(=O)c1cn(C)c2ccc(S(=O)(=O)N(C)C3CCCCC3)cc2c1=O` please.
label 0

Tell me the assay call for CCOC(=O)CC1COCCN1C(=O)c1cc(COc2ccc(F)c(F)c2)on1 (stereo not given) please.
label 0

Tell me the assay call for COC(=O)[C@]1(C)CCC[C@@]2(C)C3CC[C@]4(OC(C)=O)C[C@@]3(CCC21)CC4=NO (stereo not given in full) please.
label 0

----------
experiment: qHTS Assay for Inhibitors of Hepatitis C Virus (HCV); conditions: Huh7.5.1 HCVcc-Cre infection, luciferase reporter, 44 h; series mostly up to 41.8 µM
The whole screen tested about 340,000 compounds, of which about 12,000 (3.5%) were called active. About 18% were inconclusive and are not listed. Calls follow the shape of the dose curve; as a rule, active = well fitted inhibition curve with a large enough effect; inconclusive = small, poorly fitted or top-dose-only effect, or another doubt; inactive = no such curve, though single readings can be large or run the other way. This excerpt belongs to a sample that is enriched for actives.
In this exercise, the only acceptable responses are label 1 (active), label 0 (inactive)

Consider the following illustrative entries.
| molecule | labelValue |
| --- | --- |
| COc1cc(NC(=O)C2=CC(c3ccco3)=NS(=O)(=O)N2C)cc(OC)c1OC | label 0 |
| COc1ccc(/C=C/C(=O)OCC(=O)NC2CCCCCC2)cc1OC | label 0 |
| CCc1nnc(NC(=O)C2CCN(C(=O)c3ccccc3C)CC2)s1 | label 0 |
| Cc1cc(C)cc(NC(=O)C(c2ccccc2)N2CCN(CC(=O)N3CCCC3)CC2)c1 (stereo not drawn) | label 0 |
| O=[N+]([O-])c1cc2ccccc2nc1-c1ccccc1 | label 0 |
| O=C(O)c1ccccc1N=N/C(=N/Nc1cc(S(=O)(=O)O)ccc1O)c1ccccc1 | label 0 |
| COc1ccc(CCN(C(=O)COc2ccccc2)c2nc(-c3ccccc3)cs2)cc1OC | label 0 |
| COc1cccc(CC(=O)Nc2nc(-c3ccc(OC)c(OC)c3)cs2)c1 | label 1 |
| Cn1c2ccccc2c(=O)c2c(=O)n(Cc3ccco3)c(COc3ccccc3)nc21 | label 0 |
| Cc1cc(C)n2nc(C(=O)OCC(=O)N(C)CC(=O)Nc3ccc(F)cc3)nc2n1 | label 0 |

Tell me the assay call for Cc1ccc(S(=O)(=O)N(C)C)cc1NC(=O)C1Cc2ccccc2CN1C(=O)c1ccco1 (stereo not drawn) please.
label 0

Tell me the assay call for `COc1ccc(-c2csc(NC(=O)c3ccc(N4C(=O)CCC4=O)cc3)n2)cc1OC` please.
label 0

Tell me the assay call for `Cc1ccc(CNC(=O)Cn2cnc3c(NCc4ccccc4)ncnc32)o1` please.
label 0

Tell me the assay call for `Cc1ccc(Nc2nc(N)nc(CN3CCN(Cc4ccccc4)CC3)n2)cc1Cl` please.
label 0

Tell me the assay call for `O=C(CN1C2=NCCN2c2ccccc21)c1cccs1` please.
label 0

Tell me the assay call for Cc1ccc(C)c(NC(=O)C2Cc3ccccc3CN2C(=O)OCc2ccccc2)c1 (stereo not drawn) please.
label 1

Tell me the assay call for `Cc1ccc(Nc2nc(N3CCOCC3)nc(N3CCOCC3)n2)cc1Cl` please.
label 0

Tell me the assay call for `COC(=O)c1c(NC(=O)CCN2CCOCC2)sc2c1CCCC2` please.
label 0

Tell me the assay call for COC1=CC(=O)OC(C)(c2ccccc2)C1 (stereo not drawn) please.
label 0

FYI, the data here is from PubChem BioAssay AID651820.
